Molecular target: human A3AR (Homo sapiens, UniProt P0DMS8)
Construct: expressed in transfected cells
Sequence (P0DMS8 whole entry): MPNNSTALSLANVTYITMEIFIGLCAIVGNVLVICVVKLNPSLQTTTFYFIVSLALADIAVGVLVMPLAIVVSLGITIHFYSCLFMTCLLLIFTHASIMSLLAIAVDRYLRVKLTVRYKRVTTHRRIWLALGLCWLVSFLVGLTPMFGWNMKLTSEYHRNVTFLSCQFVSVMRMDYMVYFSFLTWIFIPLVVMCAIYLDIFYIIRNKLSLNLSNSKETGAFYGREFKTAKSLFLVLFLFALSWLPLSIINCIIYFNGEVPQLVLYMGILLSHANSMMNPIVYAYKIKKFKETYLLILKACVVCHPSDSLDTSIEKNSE
Assay: LOPAC library primary screen: single concentration (10 μM) inhibition of 25 nM CA200645 binding, PHERAstar FS
Structures can show the parent of a compound that is named as a salt.
Overview of recorded % 25 nM CA200645 binding for various compounds
result.type: % 25 nM CA200645 binding (%)

{"compound": "Cn1cc(C2=C(c3ccc(Cl)cc3Cl)C(=O)NC2=O)c2ccccc21", "result.type": "% 25 nM CA200645 binding", "recorded.number": 94.5}
{"compound": "Cn1c(=O)c2[nH]c(-c3ccc(S(=O)(=O)O)cc3)nc2n(C)c1=O", "result.type": "% 25 nM CA200645 binding", "recorded.number": 97.2}
{"compound": "C[N+]1(C)[C@@H]2CC(OC(=O)[C@H](CO)c3ccccc3)C[C@H]1[C@@H]1O[C@@H]12.O=[N+]([O-])[O-] (single isomer, unassigned; (-)) [(-)-Scopolamine methyl nitrate]", "result.type": "% 25 nM CA200645 binding", "recorded.number": 89.5}
{"compound": "COc1cccc(C(=O)NCCN2CCN(c3ccc(Cl)cc3)CC2)c1", "result.type": "% 25 nM CA200645 binding", "recorded.number": 94.3}
{"compound": "CC(=O)/C=C1\\C(=O)N(C)c2ccccc21", "result.type": "% 25 nM CA200645 binding", "recorded.number": 98.9}
{"compound": "COCC(=O)O[C@]1(CCN(C)CCCc2nc3ccccc3[nH]2)CCc2cc(F)ccc2[C@@H]1C(C)C [Mibefradil dihydrochloride]", "result.type": "% 25 nM CA200645 binding", "recorded.number": 107.6}
{"compound": "Nc1ccc(-c2ccc3ccccc3n2)cc1 [BF-170 hydrochloride]", "result.type": "% 25 nM CA200645 binding", "recorded.number": 78.6}
